Biological target: CCR4 (Homo sapiens)
Construct: CEM Cells Endogenous Express CCR4; endogenous in cells; host or cells: CEM cells
Assay: CEM cell chemotaxis (migration) assay to CCL22 (MDC) in 100% Fetal Bovine Serum (FBS)
Format: cell-based
Conditions: CEM cells in 100% FBS with 1% HEPEs; recombinant human CCL22 0.1 nM; 37° C. 60 minutes
pIC50: −log10 of the molar value.
List of pIC50 values.

{"MOLECULE": "CC(Nc1nc(N2CCN(C(=O)[C@H]3CCC(=O)N3)CC2)ncc1Cl)c1cc(F)c(Cl)cc1Cl (stereo partly shown)", "VALUE OBSERVED": "> 7.00"}
{"MOLECULE": "C[C@@H](Nc1nc(N2CCN(C(=O)[C@H]3CCCN3)[C@H](C(=O)O)C2)ncc1Cl)c1ccc(Cl)cc1Cl", "VALUE OBSERVED": "> 7.00"}
{"MOLECULE": "C[C@@H](Nc1nc(N2CCC(CO)(NC(=O)[C@H]3CCCN3)CC2)ncc1Cl)c1ccc(Cl)cc1Cl", "VALUE OBSERVED": "> 7.00"}

Now for a further molecule.
Field request: pIC50 | item: `C[C@@H](Nc1nc(N2CC[C@H](NC(=O)[C@H]3CCC(=O)N3)[C@H](O)C2)ncc1F)c1ccc(Cl)cc1Cl`
< 6.00

* * *

List of pIC50 values.
Target: CCR4 (Homo sapiens)
Construct: CEM Cells Endogenous Express CCR4; endogenous in cells; host or cells: CEM cells
Experiment: CEM cell chemotaxis (migration) assay to CCL22 (MDC) in 100% Fetal Bovine Serum (FBS)
Type: cell-based
Details: CEM cells in 100% FBS with 1% HEPEs; recombinant human CCL22 0.1 nM; 37° C. 60 minutes
pIC50: −log10 of the molar value.

Past entries and their recorded results:
{"COMPOUND": "CC(C)N1CCCC(C2CCN(c3ncc(Cl)c(N[C@H](C)c4ccc(Cl)cc4Cl)n3)CC2)C1 (some centres unmarked)", "pIC50": "> 7.00"}
{"COMPOUND": "C[C@@H](Nc1nc(N2CCN(C(=O)[C@H]3CCCN3C)CC2)ncc1Cl)c1ccc(Cl)cc1Cl", "pIC50": "> 7.00"}
{"COMPOUND": "C[C@@H](Nc1nc(N2CCC(O[C@@H]3CNC[C@H]3F)CC2)ncc1Cl)c1ccc(Cl)cc1Cl", "pIC50": "> 7.00"}

Could you share what pIC50 was measured for `C[C@@H](Nc1nc(N2CC[C@H](NC(=O)CCN(C)C)[C@@H](O)C2)ncc1Cl)c1ccc(Cl)cc1Cl` , tested on CCR4 (Homo sapiens)?
> 7.00

Param item: `C[C@@H](Nc1nc(N2CCN(C(=O)[C@H]3CCCN3)CC2)ncc1OCC(F)(F)F)c1ccc(Cl)cc1Cl`
> 7.00

Param item: `C[C@@H](Nc1nc(N2CC[C@H](NC(=O)[C@H]3CCC(=O)N3)[C@@H](O)C2)ncc1F)c1ccc(Cl)cc1Cl`
< 6.00

Param item: `C[C@@H](Nc1nc(N2CCC(C(=O)N[C@H]3CCNC3=O)CC2)ncc1Cl)c1ccc(Cl)cc1Cl`
< 6.00

Param item: `C[C@@H](Nc1nc(N2CC[C@H](NC(=O)[C@H]3CCCN3C)[C@@H](O)C2)ncc1Cl)c1ccc(Cl)cc1Cl`
> 7.00

* * *

Biological target: CCR4 (Homo sapiens, UniProt P51679)
Construct: CEM Cells Endogenous Express CCR4; endogenous in cells; host or cells: CEM cells
Sequence (P51679 1-360): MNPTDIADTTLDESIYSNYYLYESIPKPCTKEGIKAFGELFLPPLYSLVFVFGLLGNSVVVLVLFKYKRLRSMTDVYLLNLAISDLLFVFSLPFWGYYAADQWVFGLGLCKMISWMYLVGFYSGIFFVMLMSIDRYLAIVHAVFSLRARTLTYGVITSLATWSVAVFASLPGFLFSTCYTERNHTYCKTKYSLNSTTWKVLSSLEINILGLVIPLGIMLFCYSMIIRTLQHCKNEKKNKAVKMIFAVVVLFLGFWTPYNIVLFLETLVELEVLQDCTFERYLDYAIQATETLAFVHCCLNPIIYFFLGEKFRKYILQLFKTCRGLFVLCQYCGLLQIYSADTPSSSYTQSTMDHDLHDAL
Assay: CEM cell chemotaxis (migration) assay to CCL22 (MDC) in HBSS buffer with 0.1% BSA
Assay type: cell-based
Conditions: CEM cells in HBSS with 0.1% BSA; recombinant human CCL22 0.1 nM; 37° C. 60 minutes
Source text: CEM Cells Endogenous Express CCR4 A chemotaxis assay can be used to determine the efficacy of potential receptor antagonists at blocking the migration mediated through chemokine receptors, such as CCR4. This assay is routinely performed using the ChemoTX® microchamber system with a 5 μm pore-sized polycarbonate membrane. HBSS: CEM Cells are collected by centrifugation at 400×g at room temperature, then suspended at 5 million/ml in Hanks' Balanced Salt Solution (HBSS) buffer with 0.1% BSA. […]
pIC50: −log10 of the molar value.
List of pIC50 values.

Past entries and their recorded results:
{"COMPOUND": "C[C@@H](Nc1nc(N2CCC(NC(=O)[C@@H]3CCN(C)C3)CC2)ncc1Cl)c1ccc(Cl)cc1Cl [Example 1.067]", "STUDY SYSTEM": "CCR4 (Homo sapiens, UniProt P51679)", "pIC50": "> 7.00"}
{"COMPOUND": "C[C@@H](Nc1nc(N2CCC(NC(=O)[C@@H]3CNCCO3)CC2)ncc1Cl)c1ccc(Cl)cc1Cl [Example 1.131]", "STUDY SYSTEM": "CCR4 (Homo sapiens, UniProt P51679)", "pIC50": "6.00 to 7.00"}
{"COMPOUND": "C[C@@H](Nc1nc(N2CCN(C(=O)[C@H]3CCCN3C(=O)OC(C)(C)C)CC2)ncc1Cl)c1ccc(Cl)cc1Cl [Example 1.051]", "STUDY SYSTEM": "CCR4 (Homo sapiens, UniProt P51679)", "pIC50": "6.00 to 7.00"}
{"COMPOUND": "CC(Nc1nc(N2CCC(C(=O)N(C)C3CCNC3)CC2)ncc1Cl)c1ccc(Cl)cc1Cl (stereo not shown) [Example 1.065]", "STUDY SYSTEM": "CCR4 (Homo sapiens, UniProt P51679)", "pIC50": "> 7.00"}
{"COMPOUND": "C[C@@H](Nc1nc(N2CCC(C3CNC3)CC2)ncc1Cl)c1ccc(Cl)cc1Cl [Example 1.021]", "STUDY SYSTEM": "CCR4 (Homo sapiens, UniProt P51679)", "pIC50": "> 7.00"}

Could you share what pIC50 was measured for C[C@@H]1CN(c2ncc(Cl)c(N[C@H](C)c3ccc(Cl)cc3Cl)n2)CCN1C(=O)[C@H]1CCCN1 [Example 1.042] , tested on CCR4 (Homo sapiens, UniProt P51679)?
> 7.00

Param item: CC(Nc1nc(N2CCN(C(=O)[C@H]3CCC(=O)N3)CC2)ncc1Cl)c1c(F)cc(Cl)cc1F (stereo partly shown) [Example 1.076]
> 7.00

Param item: C[C@@H](Nc1nc(N2CCN(C(=O)CCN(C)C)CC2)ncc1Cl)c1ccc(Cl)cc1Cl [Example 1.010]
> 7.00

Param item: C[C@@H](Nc1nc(N2CCC(NC(=O)C3CCOCC3)CC2)ncc1Cl)c1ccc(Cl)cc1Cl [Example 1.130]
6.00 to 7.00

Param item: C[C@@H]1CN(c2ncc(Cl)c(N[C@H](C)c3ccc(Cl)cc3Cl)n2)[C@@H](C)CN1C(=O)[C@H]1CCCN1CC(=O)O [Example 1.019]
6.00 to 7.00

Param item: C[C@@H](Nc1nc(N2CC[C@@H](NC(=O)[C@H]3CCCN3)C2)ncc1Cl)c1ccc(Cl)cc1Cl [Example 1.015]
> 7.00

Param item: C[C@@H](Nc1nc(N2CC[C@H](NC(=O)[C@@H]3CCC(=O)N3)[C@@H](O)C2)ncc1Cl)c1ccc(Cl)cc1Cl [Example 1.254]
< 6.00

Param item: C[C@@H](Nc1nc(N2CCN(C3CCCN(CCC(=O)O)C3)CC2)ncc1Cl)c1ccc(Cl)cc1Cl (stereo partly shown) [Example 1.054]
> 7.00

* * *

List of IC50 values.
Biological target: CCR4 (Homo sapiens, UniProt P51679)
Construct: CEM Cells Endogenous Express CCR4; endogenous in cells; host or cells: CEM cells
Sequence (P51679 1-360): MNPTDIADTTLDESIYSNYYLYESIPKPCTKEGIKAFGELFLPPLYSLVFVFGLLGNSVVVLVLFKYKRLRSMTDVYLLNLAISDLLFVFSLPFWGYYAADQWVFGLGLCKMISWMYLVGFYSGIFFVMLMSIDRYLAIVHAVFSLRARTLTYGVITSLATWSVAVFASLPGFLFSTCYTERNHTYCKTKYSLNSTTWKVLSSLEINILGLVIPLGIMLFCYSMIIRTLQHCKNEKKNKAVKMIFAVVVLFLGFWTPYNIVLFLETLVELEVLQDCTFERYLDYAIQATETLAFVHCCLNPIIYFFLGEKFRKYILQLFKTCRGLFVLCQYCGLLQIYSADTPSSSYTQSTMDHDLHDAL
Assay: CEM cell chemotaxis (migration) assay to CCL22 (MDC) in 100% Fetal Bovine Serum (FBS)
Assay type: cell-based
Conditions: CEM cells in 100% FBS with 1% HEPEs; recombinant human CCL22 0.1 nM; 37° C. 60 minutes

{"MOLECULE": "C[C@@H](Nc1nc(N2CCN(C(=O)[C@H]3CCCC(=O)N3)CC2)ncc1Cl)c1ccc(Cl)cc1Cl", "IC50": "< 100 nM"}

Field request: IC50 | item: `C[C@@H](Nc1nc(N2CCN(C(=O)[C@H]3CCCCN3)CC2)ncc1Cl)c1ccc(Cl)cc1Cl`
< 100 nM

Param item: C[C@@H](Nc1nc(N2CCC(C3CCCNC3)CC2)ncc1Cl)c1ccc(Cl)cc1Cl (stereo partly shown)
< 100 nM

Param item: `C[C@@H](Nc1nc(N2CC[C@H](N(C)C(=O)[C@H]3CCCN3)[C@@H](O)C2)ncc1Cl)c1ccc(Cl)cc1Cl`
100 to 1000 nM
